- assayed-target: human ORL-1 receptor (opioid receptor like 1) (human, UniProt P41146 1-370)
- Sequence (P41146 whole entry): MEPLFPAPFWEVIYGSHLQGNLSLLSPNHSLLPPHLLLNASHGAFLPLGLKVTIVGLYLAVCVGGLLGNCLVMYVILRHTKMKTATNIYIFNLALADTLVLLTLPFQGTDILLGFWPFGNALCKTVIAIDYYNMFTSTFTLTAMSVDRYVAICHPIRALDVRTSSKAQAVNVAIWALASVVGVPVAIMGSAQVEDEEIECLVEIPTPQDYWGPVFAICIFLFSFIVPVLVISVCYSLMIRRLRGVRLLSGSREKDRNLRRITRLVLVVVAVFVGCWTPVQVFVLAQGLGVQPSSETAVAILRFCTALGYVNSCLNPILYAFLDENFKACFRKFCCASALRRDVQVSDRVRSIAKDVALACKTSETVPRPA
- test-details: cell-based or functional assay
Square brackets hold non-standard residues; d marks the D form. Phe(4-NO2) = N[C@@H](Cc1ccc([N+](=O)[O-])cc1)C(=O)O; Phe(4-F) = N[C@@H](Cc1ccc(F)cc1)C(=O)O; Phe(4-Me) = Cc1ccc(C[C@H](N)C(=O)O)cc1; Dab = NCC[C@H](N)C(=O)O; Dap = NC[C@H](N)C(=O)O
property-measured: % Stimulation of [35S]GTPγS binding

{"binder": "Ac-R[Tyr(4-Me)][Tyr(4-Me)]RWR-NH2 (also called Ac-Arg-Tyr(4-Me)-Tyr(4-Me)-Arg-Trp-Arg-NH2) [VII-37-B]", "% Stimulation of [35S]GTPγS binding": "< 20%"}
{"binder": "Ac-R[Phe(4-Me)][Phe(4-Me)]RWR-NH2 (SMILES CC(=O)N[C@@H](CCCNC(=N)N)C(=O)N[C@@H](Cc1ccc(C)cc1)C(=O)N[C@@H](Cc1ccc(C)cc1)C(=O)N[C@@H](CCCNC(=N)N)C(=O)N[C@@H](Cc1c[nH]c2ccccc12)C(=O)N[C@@H](CCCNC(=N)N)C(N)=O, also called Ac-Arg-Phe(4-Me)-Phe(4-Me)-Arg-Trp-Arg-NH2) [VII-17-B]", "% Stimulation of [35S]GTPγS binding": "< 20%"}
{"binder": "Ac-[Dab]YYRWR-NH2 (SMILES CC(=O)N[C@@H](CCN)C(=O)N[C@@H](Cc1ccc(O)cc1)C(=O)N[C@@H](Cc1ccc(O)cc1)C(=O)N[C@@H](CCCNC(=N)N)C(=O)N[C@@H](Cc1c[nH]c2ccccc12)C(=O)N[C@@H](CCCNC(=N)N)C(N)=O, also called Ac-Dab-Tyr-Tyr-Arg-Trp-Arg-NH2) [VII-67-A]", "% Stimulation of [35S]GTPγS binding": "< 20%"}
{"binder": "Ac-[Dap]YYRWR-NH2 (SMILES CC(=O)N[C@@H](CN)C(=O)N[C@@H](Cc1ccc(O)cc1)C(=O)N[C@@H](Cc1ccc(O)cc1)C(=O)N[C@@H](CCCNC(=N)N)C(=O)N[C@@H](Cc1c[nH]c2ccccc12)C(=O)N[C@@H](CCCNC(=N)N)C(N)=O, also called Ac-Dap-Tyr-Tyr-Arg-Trp-Arg-NH2) [VII-65-F]", "% Stimulation of [35S]GTPγS binding": "13.7%"}
{"binder": "Ac-R[Phe(4-F)][Phe(4-F)]RWR-NH2 (SMILES CC(=O)N[C@@H](CCCNC(=N)N)C(=O)N[C@@H](Cc1ccc(F)cc1)C(=O)N[C@@H](Cc1ccc(F)cc1)C(=O)N[C@@H](CCCNC(=N)N)C(=O)N[C@@H](Cc1c[nH]c2ccccc12)C(=O)N[C@@H](CCCNC(=N)N)C(N)=O, also called VII-33-C; Ac-Arg-Phe(4-F)-Phe(4-F)-Arg-Trp-Arg-NH2) [VII-33-B]", "% Stimulation of [35S]GTPγS binding": "< 20%"}

Input line: For Ac-R[Phe(4-NO2)]YRWR-NH2 (SMILES CC(=O)N[C@@H](CCCNC(=N)N)C(=O)N[C@@H](Cc1ccc([N+](=O)[O-])cc1)C(=O)N[C@@H](Cc1ccc(O)cc1)C(=O)N[C@@H](CCCNC(=N)N)C(=O)N[C@@H](Cc1c[nH]c2ccccc12)C(=O)N[C@@H](CCCNC(=N)N)C(N)=O, also called Ac-Arg-Phe(NO2)-Tyr-Arg-Trp-Arg-NH2) [VII-23-B] , what is its reported % Stimulation of [35S]GTPγS binding?
Output line: 56.6%
